# System: HLA-DR DRB1*0701 (human)
# Test Summary: radioligand inhibition, purified HLA-DR
Observed Property: IC50 (µM)
Only the number, expressed in µM, is required.

Ask: Item under review: GDPLNNTTPVTGASP [Her2/neu.120] . Reported IC50?
Reply: 13.2
